- method: Comparative stability test (total impurity content, 25° C., 60% relative humidity)
- Assay type: physicochemical
- measurement setup: 0 months, packed
parameter: total impurity content

Use the examples below as a reference point.
CCOc1nc2cccc(C(=O)OC(C)OC(=O)OCc3nc(C)c(C)nc3C)c2n1Cc1ccc(-c2ccccc2-c2noc(=O)[n-]2)cc1.[K+] (stereo not shown) [crystalline form III]
1.56%
CCOc1nc2cccc(C(=O)OC(C)OC(=O)OCc3nc(C)c(C)nc3C)c2n1Cc1ccc(-c2ccccc2-c2noc(=O)[n-]2)cc1.[K+] (stereo not shown) [crystalline form II]
1.29%
CCOc1nc2cccc(C(=O)OC(C)OC(=O)OCc3nc(C)c(C)nc3C)c2n1Cc1ccc(-c2ccccc2-c2noc(=O)[n-]2)cc1.[K+] (stereo not shown) [crystalline form I]
1.11%

Lab note: next molecule to report on.
Task: GET /values?readout=total impurity content&item= CCOc1nc2cccc(C(=O)OC(C)OC(=O)OCc3nc(C)c(C)nc3C)c2n1Cc1ccc(-c2ccccc2-c2noc(=O)[n-]2)cc1.[K+] (stereo not shown) [mixture of crystalline form I and II]
Result: 0.90%

Entry source: patent US10611757B2
